Sourced from ChEMBL document CHEMBL4311931

target: Bromodomain-containing protein 4 (Homo sapiens, UniProt O60885); assay: Inhibition of BRD4 in luciferase expressing human […] cells transfected with HPV-E2 assessed as transrepression of HPV-long control region by luciferase reporter assay relative to parent compound

| Compound | fold change (FC) |
| --- | --- |
| Cc1sc2c(c1C)C(c1ccc(Cl)cc1)=N[C@@H](CC(=O)NCCOCCOCCNC(=O)CCCCCC1(C)C(/C=C/C=C/C=C3/N(CCCS(=O)(=O)O)c4ccc(S(=O)(=O)O)cc4C3(C)C)=[N+](CCCS(=O)(=O)[O-])c3ccc(S(=O)(=O)O)cc31)c1nnc(C)n1-2 (stereo not given in full) | > 50 |
| Cc1sc2c(c1C)C(c1ccc(Cl)cc1)=N[C@@H](CC(=O)NCCOCCOCCN)c1nnc(C)n1-2 | > 50 |
| Cc1sc2c(c1C)C(c1ccc(Cl)cc1)=N[C@@H](CC(=O)NCCOCCOCCNC(=O)C1C(C(=O)O)C(C(=O)O)C1C(=O)O)c1nnc(C)n1-2 (stereo not given in full) | > 50 |
| Cc1sc2c(c1C)C(c1ccc(Cl)cc1)=N[C@@H](CC(=O)NCCOCCOCCNC(=O)OC(C)(C)C)c1nnc(C)n1-2 | 11.2 |
| Cc1sc2c(c1C)C(c1ccc(Cl)cc1)=N[C@@H](CC(=O)NCCOCCOCCNC(=O)CS(=O)(=O)O)c1nnc(C)n1-2 | > 50 |
